All figures here come from PubChem BioAssay (NCI).

# Test system: SK-MEL-2 melanoma
# Protocol description: NCI tumour cell line growth inhibition, 48 h
Measurement name: TGI (µM)

Molecule: COc1ccc2c(c1)C(=O)c1c-2n(CCCN)c(=O)c2cc([N+](=O)[O-])ccc12
Measurement name: TGI
Censoring sign: =
Number: 8.53
//
Molecule: C=CCCCOC1[C@H](OCc2ccccc2)C(OCc2ccccc2)C(OC)O[C@@H]1CNC(=O)c1cccc(I)c1 (stereo partly specified)
Measurement name: TGI
Censoring sign: >
Number: 100
//
Molecule: CN(/N=N/c1nc[nH]c1C(N)=O)C1CCCCC1
Measurement name: TGI
Censoring sign: >
Number: 100
//
Molecule: COc1ccc(/C(=N/Nc2nc3ccccc3[nH]2)C(=O)O)cc1
Measurement name: TGI
Censoring sign: >
Number: 100
//
Molecule: Oc1ccc(Cl)cc1C1=N/C(=N\C/N=C2\N=C(c3cc(Cl)ccc3O)CC(c3ccccc3)N2)NC(c2ccccc2)C1 (stereo unspecified)
Measurement name: TGI
Censoring sign: >
Number: 100
//
Molecule: COc1cc(/C=C/[N+](=O)[O-])cc(OC)c1OC
Measurement name: TGI
Censoring sign: =
Number: 7.11
//
Molecule: N=C(N)SCCCN
Measurement name: TGI
Censoring sign: =
Number: 32.2
//
Molecule: C=C(Br)CNCC(=C)Br
Measurement name: TGI
Censoring sign: >
Number: 100
//
Molecule: CCN(CC)CCCC(C)Nc1c(Sc2cnc3cc(Cl)ccc3c2NC(C)CCCN(CC)CC)cnc2cc(Cl)ccc12 (stereo unspecified)
Measurement name: TGI
Censoring sign: =
Number: 3.3
//
Molecule: COc1ccc(Cc2nc3ccccc3s2)cc1OC
Measurement name: TGI
Censoring sign: =
Number: 42.6
//
Molecule: ONC1=Nc2ccccc2OCc2cc(Br)c(Br)cc2COc2ccccc2N=C1NO
Measurement name: TGI
Censoring sign: =
Number: 38.7

====

Listed compounds paired with reported TGI
# Test system: SNB-19 CNS
# Protocol description: NCI tumour cell line growth inhibition, 48 h
Measurement name: TGI

Compound: COc1cc(C(c2cccc3ccccc23)N2C(=O)CCC2C(=O)NCc2ccccc2)cc(OC)c1OC (centres undefined)
Result: > 100 µM

Compound: CC(=O)Nc1ccc(C(=O)NN2C(=O)C(Cl)C2c2ccc(O)cc2)cc1 (centres undefined)
Result: > 100 µM

Compound: O=C1c2ccccc2-c2nc(-c3ccccc3)cc3c2c1nc1ccccc13
Result: 52.9 µM

Compound: N=C(N)SCCCN
Result: > 82.7 µM

Compound: Cc1ccc(SC[C@@]2(C(F)F)NC(=O)NC2=O)cc1
Result: > 100 µM

Compound: O=C1NC2CCCCC2N=C1/C(C(=O)c1ccccc1)=C(\O)c1ccccc1 (centres undefined)
Result: > 100 µM

Compound: O=C(/C=C(\O)c1ccccc1)/C(=C/C(=O)c1ccccc1)NN=C(c1ccccc1)c1ccccc1
Result: > 100 µM

Compound: COc1cc(C2CC(=O)Nc3c2cc(Br)c2ccccc32)cc(Br)c1OC (centres undefined)
Result: 9.96 µM

Compound: COc1ccc2c(c1OC)C(=O)O[C@@H]2[C@H]1c2cc3c(cc2CCN1C)OCO3
Result: > 100 µM

Compound: COc1cc2c(cc1-c1coc3cc(OCC=C(C)C)ccc3c1=O)OCO2
Result: > 100 µM

Compound: CCOP(=O)(OCC)C1(O)CC(n2cc(C)c(=O)[nH]c2=O)OC1CO (centres undefined)
Result: > 100 µM

Compound: Cc1ccc(N=C2SC(c3ccc(C)cc3)(c3ccc(C)cc3)c3ccccc32)cc1
Result: > 100 µM

Compound: N#CC(C#N)=C(N)/C(C#N)=C/c1ccc2[nH]ccc2c1
Result: > 100 µM

Compound: C[C@@H]1COCCN1c1cc(-c2ccnn2C)c2ccnc(-c3ccn[nH]3)c2n1
Result: > 100 µM

Compound: CC1(C)CCCCCCCCCC(C)(CCCCCCCCCCCCO)C1=O (centres undefined)
Result: 26.1 µM

Compound: O=C(CCc1nc(=S)[nH][nH]1)Nc1cccc(C(F)(F)F)c1
Result: > 100 µM

Compound: CC[C@H]1C=CCC[C@@]2(C[C@@H]3CC[C@@H]4[C@H](C(=O)OCCCCCCCCCCCCCCCC(=O)N(CCCN)CCCCN)[C@]5(CCC[C@@H](C)O5)NC(=[N+]34)N2)O1
Result: 1.99 µM

Compound: O=c1c(-c2ccccc2)coc2cc(OC/C(=N/O)c3ccc(F)cc3)ccc12
Result: 53.5 µM

Compound: CC(=O)O[C@H]1CN(S(=O)(=O)c2ccc(C)cc2)C[C@@H]1C1CCCCC1
Result: > 100 µM

Compound: COc1ccc2c(c1)/C(=C\c1c[nH]c3ccc(OC)cc13)C(=O)N2
Result: 20.1 µM

Compound: CC(=O)[CH-]C(=O)Nc1ccccc1.CC(=O)[CH-]C(=O)Nc1ccccc1.CC[O-].CC[O-].[Ti+4]
Result: > 100 µM

Compound: O=c1cccc(C#CC#CCCCO)o1
Result: 39.1 µM

Compound: O=S1(=O)C(c2ccccc2)=C(O)c2ccccc21
Result: > 100 µM

Compound: Oc1ccc(Cl)cc1C1=N/C(=N\C/N=C2\N=C(c3cc(Cl)ccc3O)CC(c3ccccc3)N2)NC(c2ccccc2)C1 (centres undefined)
Result: > 100 µM

Compound: CN1CCN(c2cc3nc4ccccc4n(-c4ccc(Cl)cc4)c-3cc2=N)CC1
Result: > 100 µM

Compound: C[C@H]1c2ccccc2CN1CCCOc1cc2c(cc1OCC1CC1)C1(CCCC1)C(N)=N2
Result: 11.8 µM

Compound: CC/C=C\C/C=C/C=C1/C(=O)C=C[C@@H]1C/C=C\CCCC(=O)OC
Result: 19.3 µM

Compound: COP(=O)(OC)C(NC=O)P(=O)(OC)OC
Result: > 100 µM

Compound: C/C=C/[C@H]1O[C@@](O)([C@@H](C)[C@H](O)[C@H](C)[C@H]2OC(=O)/C(OC)=C/C(C)=C/[C@@H](C)[C@@H](O)[C@@H](CC)[C@@H](O)[C@H](C)C/C(C)=C/C=C/[C@@H]2OC)C[C@H](OC2CC(O)C(OC(N)=O)C(C)O2)[C@@H]1C (some centres undefined)
Result: 23.7 µM

Compound: CN(C)Cc1cc(C(=O)/C=C/c2cccc(Cl)c2)cc(CN(C)C)c1O
Result: 69.9 µM

Compound: C=C(Br)CNCC(=C)Br
Result: > 100 µM

Compound: CCNc1ncnc2c1nnn2CC
Result: > 100 µM

Compound: Oc1nc(N/N=C/c2ccccc2)[nH]c1/C=C1\C=Nc2ccccc21
Result: > 100 µM

Compound: CC(C)=Nn1cnc(C(=N)C#N)c1N
Result: > 100 µM

====

# System: SF-268 CNS
# Protocol description: NCI tumour cell line growth inhibition, 48 h; in the data active = GI50 below about 0.43 µM; inactive = the rest
Possible outcomes: T for active, F for inactive

Compound: Brc1cccc(-c2cc(-c3ccc4nccnc4c3)[nH]n2)c1
Category label: F
//
Compound: N/C(=N\c1nc2ccccc2s1)NC(=NC1CCCCC1)NC1CCCCC1
Category label: F
//
Compound: COc1ccc2c(c1)/C(=C\c1c[nH]c3ccc(OC)cc13)C(=O)N2
Category label: F
//
Compound: CCOC1OC(=O)[C@H]2[C@@H]1[C@@H]1CC[C@H]2O1 (stereo partly specified)
Category label: F
//
Compound: CCSc1nc(N)c(C#N)c(-c2ccco2)c1C#N
Category label: F
//
Compound: Cc1c2ccncc2c(C)c2c1c1cc(CO)ccc1n2C
Category label: F
//
Compound: Nc1n[nH]c(N)c1N=Nc1ccc(O)cc1
Category label: F
//
Compound: O=C(Nc1cnc(C(F)(F)F)cn1)c1cc(Cl)ccc1O
Category label: T
//
Compound: COc1cccc(CC(C)=C(c2ccc(OCCCN(C)C)cc2)c2ccc(OCCCN(C)C)cc2)c1
Category label: F
//
Compound: C=C1C(=O)O[C@H]2[C@H]1CC/C(CNC(=O)/C=C/c1ccccc1)=C\CC[C@@]1(C)O[C@@H]21
Category label: F
//
Compound: COc1cc(/C=C/[N+](=O)[O-])cc(OC)c1OC
Category label: F
//
Compound: CC(=O)O.CC(=O)O.CC(=O)O.CC(=O)O.[Rh].[Rh]
Category label: F
//
Compound: NS(=O)(=O)c1cccc(-c2ccc3c(NC(=O)C4CC4)n[nH]c3c2)c1
Category label: F
//
Compound: COc1cc(C2CC(=O)Nc3c2cc(Br)c2ccccc32)cc(Br)c1OC (stereo unspecified)
Category label: F
//
Compound: CCN(CC)CCC(CNc1c(C)cnc2cc(Cl)ccc12)c1ccc(Cl)cc1 (stereo unspecified)
Category label: F
//
Compound: Cc1ccc(Sc2oc(-c3ccc(C)cc3)nc2[P+](c2ccccc2)(c2ccccc2)c2ccccc2)cc1
Category label: T

====

# System: PC-3 prostate
# Protocol description: NCI tumour cell line growth inhibition, 48 h; in the data active = GI50 below about 0.43 µM; inactive = the rest
Possible outcomes: yes (1) = active, no (0) = inactive

Compound: Nc1n[nH]c2ccc([C@@H]3Nc4cc5[nH]ncc5cc4[C@H]4C5CCC(C5)[C@@H]34)cc12 (stereo partly drawn)
Category label: yes (1)
//
Compound: CN(c1ccc(C#N)c(Cl)c1)C1CCC(NC(=O)c2ccc(N3CCN(C4CN(c5ccc6c(c5)C(=O)N(C5CCC(=O)NC5=O)C6=O)C4)CC3)cc2)CC1 (stereo not drawn)
Category label: no (0)
//
Compound: Cn1c2c(c3ccccc31)CCN1C(=O)C3SC21C1C(=O)N(c2ccccc2)C(=O)C31 (stereo not drawn)
Category label: no (0)
//
Compound: COc1cc(C2CC(=O)Nc3c2cc(Br)c2ccccc32)cc(Br)c1OC (stereo not drawn)
Category label: no (0)
//
Compound: CC1=C(C(=O)Nc2ccc(F)c(Cl)c2)C(c2ccccc2O)NC(=O)N1 (stereo not drawn)
Category label: no (0)
//
Compound: Nc1ncccc1-c1nc2ccc(-c3ccccc3)nc2n1-c1ccc(C2(N)CCC2)cc1
Category label: yes (1)
//
Compound: CCOC(=O)C1=C(C)N2C(=NC3=C(CCC/C3=C\c3ccc(Cl)cc3)C2c2ccc(Cl)cc2)S1 (stereo not drawn)
Category label: no (0)
//
Compound: Cc1c2ccncc2c(C)c2c1c1cc(CO)ccc1n2C
Category label: yes (1)
//
Compound: COc1cccc(C2C(C#N)=C(N)Oc3c2ccc2ccccc32)c1 (stereo not drawn)
Category label: yes (1)
//
Compound: Cc1oc2c(c1C(=O)N1CC[C@@H](N)C1)C(=O)c1c(c(O)c3ccccc3c1O)C2=O
Category label: no (0)
//
Compound: CCN(CC)CCCC(C)Nc1c(-c2ccccc2)cnc2cc(Cl)ccc12 (stereo not drawn)
Category label: no (0)
//
Compound: O=c1cccc(C#CC#CCCCO)o1
Category label: no (0)
//
Compound: O=c1c(-c2ccccc2)coc2cc(OC/C(=N/O)c3ccc(F)cc3)ccc12
Category label: no (0)
